Reference source for all entries: patent US9144569B2

Test: Example I: plasma letrozole concentration (LC/MS/MS) and non-compartmental pharmacokinetics after single iv dose
Assay type: in vivo, cattle
Settings: female, bovine, plasma, iv; doses combined; read-out: Systemic clearance (Cls) (converted)
METRIC: clearance (mL/min/kg)

1) N#Cc1ccc(C(c2ccc(C#N)cc2)n2cncn2)cc1	0.27

---

Assay: Example I: plasma letrozole concentration (LC/MS/MS) and non-compartmental pharmacokinetics after single iv dose
Type: in vivo, cattle
Settings: female, bovine, plasma, iv, 125 ug/kg, 125 μg/kg single iv, n=9; read-out: Half-life (T1/2) (converted)
METRIC: half-life (h)

1) N#Cc1ccc(C(c2ccc(C#N)cc2)n2cncn2)cc1	26.9
